- experimentNotes: qHTS assay to identify small molecule HDAC inhibitors (AID 1259364);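 also: wild-type HCT-116 cells with endogenous class I/II HDAC activity; top concentration of the series differs between compounds; nearly all actives have a fitted effect of over 45% in size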
- conditionParameters: HCT-116 HDAC-Glo I/II luminescence, 2 h; series mostly up to 92.4 µM
Records with an inconclusive call do not appear. Active and inactive are the calls of the source. Calls follow the shape of the dose curve; as a rule, active = well fitted inhibition curve with a large enough effect in the repeat runs; inconclusive = weak or mixed curves; inactive = flat fitted curve, though single readings scatter.
Entry note: the call must match one of true (1) (active), false (0) (inactive)

molecule=CCOC(=O)C(C#N)=C(c1ccccc1)c1ccccc1 category="false (0)"
molecule=Nc1ccc(Cl)cc1Cl category="false (0)"

Qu. Any idea what this test logged for Cc1c(OCC(F)(F)F)ccnc1CS(=O)c1nc2ccccc2[nH]1 (stereo not drawn) ?
Ans. false (0)

Qu. What do you have for c1ccc2c(c1)c1cccc3ccc4cccc2c4c31 ?
Ans. false (0)

Provenance of the data: PubChem BioAssay (Tox21)
